Target Of Assay: T1, human C-MET His tagged, monomeric (human, UniProt P08581 25-932)
T1 construct: also called monomeric human C-MET; biotinylated human C-MET-His
T1 sequence (P08581 25-932): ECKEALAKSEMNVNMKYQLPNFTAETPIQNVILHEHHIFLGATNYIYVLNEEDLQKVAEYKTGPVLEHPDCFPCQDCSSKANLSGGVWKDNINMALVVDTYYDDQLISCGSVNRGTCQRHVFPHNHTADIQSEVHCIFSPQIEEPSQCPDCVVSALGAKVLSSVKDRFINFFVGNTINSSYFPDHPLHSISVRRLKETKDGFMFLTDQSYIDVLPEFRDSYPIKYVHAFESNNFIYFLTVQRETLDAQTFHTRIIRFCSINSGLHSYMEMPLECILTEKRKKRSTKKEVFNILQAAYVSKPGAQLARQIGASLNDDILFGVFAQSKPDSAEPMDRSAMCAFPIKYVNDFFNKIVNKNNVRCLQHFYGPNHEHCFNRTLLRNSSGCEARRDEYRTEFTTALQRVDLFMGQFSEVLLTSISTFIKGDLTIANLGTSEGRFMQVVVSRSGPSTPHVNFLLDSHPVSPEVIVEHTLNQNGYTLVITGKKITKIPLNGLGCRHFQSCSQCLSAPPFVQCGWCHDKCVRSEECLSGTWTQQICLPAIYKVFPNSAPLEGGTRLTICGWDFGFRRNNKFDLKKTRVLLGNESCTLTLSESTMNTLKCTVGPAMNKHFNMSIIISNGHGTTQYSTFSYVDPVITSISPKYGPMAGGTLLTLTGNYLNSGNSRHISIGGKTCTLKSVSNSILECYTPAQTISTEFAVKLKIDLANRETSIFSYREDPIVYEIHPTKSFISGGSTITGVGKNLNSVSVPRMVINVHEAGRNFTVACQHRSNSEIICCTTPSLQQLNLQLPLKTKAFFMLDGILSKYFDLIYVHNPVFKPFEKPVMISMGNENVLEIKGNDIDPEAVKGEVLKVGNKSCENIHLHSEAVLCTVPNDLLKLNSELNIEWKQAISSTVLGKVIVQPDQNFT
Assay Name: SPR Biacore, IgG captured, monomeric C-MET-His analyte
Observed Property: Kd
Write the figure, then the unit, nothing else.

Consider the worked cases shown below.
08G07 (antibody, human IgG4, V domains shown) VH: QVQLVQSGAEVKKPGASVKVSCKASGYTFTSYTMHWVRQAPGQGLEWMGWINPSGGLANYAQKFQGRVTMTRDTSTSTVYMELSSLRSEDTAVYYCARSEITTDFDYWGQGTLVTVSS VL: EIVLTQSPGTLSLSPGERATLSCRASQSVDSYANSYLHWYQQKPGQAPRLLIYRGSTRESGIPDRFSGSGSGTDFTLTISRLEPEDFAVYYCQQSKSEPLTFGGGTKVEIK : 0.12 nM
MH7 (antibody, human IgG4, V domains shown) VH: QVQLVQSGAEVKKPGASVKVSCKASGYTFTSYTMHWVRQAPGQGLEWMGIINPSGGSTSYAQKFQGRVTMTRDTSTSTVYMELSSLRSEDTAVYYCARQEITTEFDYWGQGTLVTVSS VL: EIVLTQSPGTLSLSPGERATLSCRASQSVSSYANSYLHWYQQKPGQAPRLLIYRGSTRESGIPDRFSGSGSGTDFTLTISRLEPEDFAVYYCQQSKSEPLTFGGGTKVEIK : 0.3 nM
MH7-3 (antibody, human IgG4, V domains shown) VH: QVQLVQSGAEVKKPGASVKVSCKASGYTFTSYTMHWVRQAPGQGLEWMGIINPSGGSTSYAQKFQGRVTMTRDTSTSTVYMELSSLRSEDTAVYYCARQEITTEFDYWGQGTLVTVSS VL: EIVLTQSPGTLSLSPGERATLSCRASQSVSSYAQSYLHWYQQKPGQAPRLLIYRGSTRETGIPDRFSGSGSGTDFTLTISRLEPEDFAVYYCQQSKESPLTFGGGTKVEIK : 1.31 nM
MH5 (antibody, IgG4, V domains shown) VH: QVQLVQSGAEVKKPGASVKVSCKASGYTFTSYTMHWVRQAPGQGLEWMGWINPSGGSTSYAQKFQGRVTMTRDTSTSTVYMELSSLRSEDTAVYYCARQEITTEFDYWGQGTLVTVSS VL: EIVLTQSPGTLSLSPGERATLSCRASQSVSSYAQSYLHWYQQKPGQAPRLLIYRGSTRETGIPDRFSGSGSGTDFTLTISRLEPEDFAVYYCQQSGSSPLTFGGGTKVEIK : 2 nM

// next entry
Entry under review: 04E10 (antibody, IgG4, V domains shown) VH: QVQLVQSGAEVKKPGASVKVSCKASGYIFTSYTMHWVRQAPGQGLEWMGWIKPNNGSASYAQKFQGRVTMTRDTSTSTVYMELSSLRSEDTAVYYCARSEITTEEDYWGQGTLVTVSS VL: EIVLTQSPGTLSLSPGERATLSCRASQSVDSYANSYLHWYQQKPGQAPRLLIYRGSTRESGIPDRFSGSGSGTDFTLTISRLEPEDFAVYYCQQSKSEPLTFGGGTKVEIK . Reported Kd? 1.6 nM
